Data origin: patent US20210038585A1

Tested on: intracellular PARP activity
Settings: read-out: intracellular PARP activity IC50
measurementType: IC50 (nM)
API: value field is a number in nM; no unit string.

GET /value?item= `NC(=O)c1cccc2cn(-c3ccc([C@@H]4CCCNC4)cc3)nc12` &field=IC50 returns 4

----------
Test: in vivo
Details: 50 mg/kg
measurementType: concentration at 6 h

GET /value?item= NC(=O)c1cccc2cn(-c3ccc([C@@H]4CCCNC4)cc3)nc12 [Niraparib] &field=concentration at 6 h returns ~4.57 µg/mL
